test system: PBMC (polyclonal gluten-specific T cells) of paediatric and adult CD patients; assay: IFN-γ ELISpot of PBMC after 3 day oral wheat challenge (SFU, % of maximal peptide response, dominance scores, EC50; Examples 5-6); format: cell-based, human; conditions: patient P, 11-17 yrs; after oral wheat challenge; cut-off 21.6 SFU
PROPERTY: IFN-γ ELISpot response (SFU)
Please reply with the bare figure in SFU and do not write the unit itself.

- CHAIN: "TIPEQPEQPFPLQ"
  IFN-γ ELISpot response (SFU): 7
- CHAIN: "FLQPEQPFPEQPEQPYPEQPEQPFPQ"
  IFN-γ ELISpot response (SFU): 11
- CHAIN: "QPFPQPEQPIPVQ"
  IFN-γ ELISpot response (SFU): 42
- CHAIN: "PIPQQPQQPFPLQ"
  IFN-γ ELISpot response (SFU): 9
- CHAIN: "LPYPQPQLPYPQP"
  IFN-γ ELISpot response (SFU): 17

-- ask Any idea what its IFN-γ ELISpot response is? The sequence is `QFIQPEQPFPQQ`
-- reply 8

-- ask Entry `LQPFPQPELPYSQP` please
-- reply 37

-- ask What do we get for `PEQPFPEQPEQPF` ?
-- reply 10

-- ask Field entry: `GQSGYYPTSPQQS`
-- reply 10

-- ask Likewise for `PFPLQPEQPFPQP` ?
-- reply 27

-- ask And the next one, `QPFPQPEQPFPWQP` ?
-- reply 20

-- ask Repeat with LPYPQPELPYPQP [Peptide W01]
-- reply 36

-- ask Can you check QPFPQPQQPIPVQ [Peptide W04] next?
-- reply 21

-- ask Also `FPQPQQQFPQPQQ` ?
-- reply 4

-- ask // next record `PFPEQPEQPFPQP`
-- reply 8

###

test system: PBMC (polyclonal gluten-specific T cells) of paediatric and adult CD patients; assay: IFN-γ ELISpot of PBMC after 3 day oral wheat challenge (SFU, % of maximal peptide response, dominance scores, EC50; Examples 5-6); type: cell-based, human; details: patient H, 11-17 yrs; after oral wheat challenge; cut-off 10 SFU
PROPERTY: IFN-γ ELISpot response (SFU)
The figure you give is taken to be in SFU; do not add the unit.

Field: example entries. Status: answers known.
- CHAIN: "GQSGYYPTSPQQS"
  IFN-γ ELISpot response / SFU: 4
- CHAIN: "LQPFPQPELPYPQPQ"
  IFN-γ ELISpot response / SFU: 8
- CHAIN: "QPFPQPEQPFPWQP"
  IFN-γ ELISpot response / SFU: 8.5
- CHAIN: "PFPLQPEQPFPQP"
  IFN-γ ELISpot response / SFU: 11
- CHAIN: "LQPFPQPQLPYPQP"
  IFN-γ ELISpot response / SFU: 14

-- ask IFN-γ ELISpot response for `LPYPQPQLPYPQP` ?
-- reply 13

-- ask Try the sequence `PIPQQPQQPFPLQ`
-- reply 10

-- ask Here is the next sequence: `GIIQPQQPAQL`
-- reply 1

-- ask Here is the next sequence: LQPFPQPELPFPQP [Peptide W06]
-- reply 16

-- ask Try `QPFPQPEQPIPVQ` next.
-- reply 10

###

tested on: PBMC (polyclonal gluten-specific T cells) of paediatric and adult CD patients; test: IFN-γ ELISpot of PBMC after 3 day oral wheat challenge (SFU, % of maximal peptide response, dominance scores, EC50; Examples 5-6); type: cell-based, human; details: patient A, 11-17 yrs; after oral wheat challenge; cut-off 10 SFU
PROPERTY: IFN-γ ELISpot response (SFU)
Value expressed in SFU; do not type the unit.

Worked examples, 5 sequences total:
- CHAIN: "GQSGYYPTSPQQS"
  IFN-γ ELISpot response (SFU): 5
- CHAIN: "QFIQPEQPFPQQ"
  IFN-γ ELISpot response (SFU): 0
- CHAIN: "TIPEQPEQPFPLQ"
  IFN-γ ELISpot response (SFU): 0
- CHAIN: "PEQPFPEQPEQPF"
  IFN-γ ELISpot response (SFU): 2
- CHAIN: "QPFPQPQQPFSQQ"
  IFN-γ ELISpot response (SFU): 9

-- ask Lab note: need IFN-γ ELISpot response for `QPFPQPEQPIPVQ` on PBMC (polyclonal gluten-specific T cells) of paediatric and adult CD patients, anyone have it?
-- reply 5

-- ask Another sequence to look at: `LPYPQPQLPYPQP`
-- reply 3

-- ask Then QPFPQPQQPIPVQ [Peptide W04] ?
-- reply 1

-- ask Field entry: `PIPQQPQQPFPLQ`
-- reply 6
